System: kinetic aqueous solubility, PBS pH 7.4, LC-UV/MS
Assay: Identifying a Potential Treatment of Ataxia-Telangiectasia: Solubility Profiling
Settings: stronger effect = higher value
Description: Ataxia-telangiectasia (A-T) is a devastating and progressive disease for which, there is no cure. Although A-T is a multisystem disease, it is stereotyped characterized by its neurological symptoms such as truncal ataxia, due to cerebellar cortical degeneration of the Purkinje and granule cells. The underlying genetic cause of A-T is null mutations in the ATM (A-T mutated) gene. […] 1. […] Concentration of the supernatant was determined by LC-UV or LC-MS/MS
quantity.name: solubility

I am curious: what solubility value has been reported for `CC(=O)c1c(O)c(C)c(O)c(Cc2c(O)c3c(c(C(=O)/C=C/c4ccccc4)c2O)OC(C)(C)C=C3)c1O` ? 250 µM

The reported measurements were obtained from PubChem BioAssay AID504780.
